B1: library; numbered along this chain (parent)
chain: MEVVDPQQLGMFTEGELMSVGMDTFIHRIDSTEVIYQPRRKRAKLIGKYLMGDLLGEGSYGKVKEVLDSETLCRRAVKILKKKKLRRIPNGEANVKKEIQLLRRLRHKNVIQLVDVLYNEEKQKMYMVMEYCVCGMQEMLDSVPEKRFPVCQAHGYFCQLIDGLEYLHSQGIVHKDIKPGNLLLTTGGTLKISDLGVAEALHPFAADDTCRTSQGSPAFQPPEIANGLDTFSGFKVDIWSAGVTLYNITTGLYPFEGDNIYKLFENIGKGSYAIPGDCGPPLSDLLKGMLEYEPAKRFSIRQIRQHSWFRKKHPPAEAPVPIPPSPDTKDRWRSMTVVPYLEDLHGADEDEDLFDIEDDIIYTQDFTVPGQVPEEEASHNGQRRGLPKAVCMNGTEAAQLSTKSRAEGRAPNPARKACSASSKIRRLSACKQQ

# Variants of: B1
# Method Description: STK11 functional score (HeLa growth suppression), rescaled enrichment; synonymous median = 1, nonsense median = 0 (normalised score)
# Condition Notes: with HeLa; variant type: missense

Variant Notation	STK11 functional score
E130L	0.308
P411A	1.04
C134Q	0.746
K329W	0.742
D207R	1.55
I99E	1.65
I322A	1.53
Q305K	0.543
R310F	1.35
K82G	1.23
C418V	1.62
A389T	1.25
D358H	0.325
L85C	1.1
R106S	1.49
N266W	0.574
N226P	0.609
T209R	1.27
R384Y	1.53
H306T	1.54
S421R	1.44
E376H	0.914
